meta.source: paper PMC3274775

target of assay: HIV-1 integrase (Human immunodeficiency virus type 1 group M subtype B, UniProt P04585)
observed property: IC50 (nM)
Report only the number, with the unit nM understood.

Result for O=C(O)C(=O)C=C(O)c1cc(Cc2ccc(F)cc2F)cn(Cc2ccc(F)cc2F)c1=O [Entry 11] , tested on HIV-1 integrase (Human immunodeficiency virus type 1 group M subtype B, UniProt P04585), IC50: 5.5

* * *

System: HIV-1
test protocol: microbe, parasite or virus in culture
conditions used: Human immunodeficiency virus 1, MAGI
observed property: EC50 (µM)
Enter your answer as a number in µM; do not include the unit.

For reference, reported EC50 for O=C(O)C(=O)C=C(O)c1cc(Cc2ccc(F)cc2F)cn(Cc2ccc(F)cc2F)c1=O [Entry 11] stands at 0.3
